- Test Description: viability loss with induced miR-34 in A549 – imaging, A549 dox-inducible miR-34, nuclei and caspase counts, primary screen (AID 1347080)
- Test Parameters: A549 miR-34 inducible, Hoechst nuclei count, 48 h; measured here: total cells without miR-34 induction
Outcome label depends on cell count relative to 6000: at/above gives met, below gives not met.

| Molecule | Category |
| --- | --- |
| CCCCC(C)(C)[C@H](O)/C=C/[C@@H]1[C@@H](C/C=C\CCCC(=O)O)[C@H](O)C[C@H]1O | met |
| CCCCC[C@@](C)(O)/C=C/[C@@H]1C(C/C=C\CCCC(=O)O)[C@@H](O)C[C@H]1O (some centres undefined) | met |
| CCCCC[C@H](O)/C=C/[C@H]1[C@H](O)CC(=O)[C@@H]1CCCCCCCO | not met |
| C[n+]1ccc(/C=C/c2c[nH]c3ccccc23)cc1 | not met |
| CC(C)(C)OC(=O)N1CCC(OCc2nc(-c3ccncc3)no2)CC1 | not met |
| O=C1C(c2ccccc2)N(c2ccc(Br)cc2)C(=O)N1c1ccc(Br)cc1 (centres undefined) | met |

---

- Test Description: P. berghei load reduction in hepatocytes – cell-based, HepG2, luciferase luminescence, HepG2 viability, primary screen (AID 624349)
- Test Parameters: P. berghei liver stage in HepG2, luciferase luminescence, concentration not given here
Active and inactive are the calls of the source. Cut-off read from the data, not from the text of the source: active = parasite load remaining mostly below about 12% (no sharp cut-off); inactive = mostly above about 10%.
Classes used: Y for active, N for inactive

| Molecule | Category |
| --- | --- |
| N[C@@H](Cn1ccc(=O)c(O)c1)C(=O)O | N |
| CCCCCCCCCCCCCCCCn1cc[n+](Cc2ccccc2)c1C | N |
| COc1ccc(CNc2nc(N(CCO)CCO)nc3c2ncn3C(C)C)cc1 | N |
| O=C1NC(=O)/C(=C/c2ccc3c(c2)OC(F)(F)O3)S1 | N |
| COc1ccc(CNC(=O)Nc2ncc([N+](=O)[O-])s2)cc1 | N |
| CC(C)n1cnc2c(NCCCCCCNC(=O)OC(C)(C)C)nc(NCCO)nc21 | N |
| COc1ccc(OC)c2c(=S)c3ccccc3[nH]c12 | N |
| O=C(CCCc1ccc(-c2ccccc2F)cc1)Nc1ccc(O)cc1 | N |
| CC(=O)OC1C(C)OC(Oc2c(-c3ccc(O)cc3)oc3cc(O)cc(O)c3c2=O)C(O)C1OC(C)=O (stereo not given) | N |
| NC(=O)c1cccc(-c2cc(Nc3ccc(OC(F)(F)F)cc3)ncn2)c1 | N |
| CC(C)[C@H](CO)Nc1nc(Nc2cc(N)cc(Cl)c2)c2ncn(C(C)C)c2n1 | N |
| c1nc2nc(Nc3ccc(N4CCOCC4)cc3)nc(NC3CCCCC3)c2[nH]1 | N |
| Nc1nc(Nc2ccc(S(N)(=O)=O)cc2)nn1C(=O)c1c(F)cccc1F | N |
| CO[C@H]1C[C@@H]2CC[C@@H](C)[C@@](O)(O2)C(=O)C(=O)N2CCCC[C@H]2C(=O)O[C@H]([C@H](C)C[C@@H]2CC[C@@H](O)[C@H](OC)C2)CC(=O)[C@H](C)/C=C(\C)[C@@H](O)[C@@H](OC)C(=O)[C@H](C)C[C@H](C)/C=C/C=C/C=C/1C | N |
| O=C1NC(=O)/C(=C/c2cccc(C(F)(F)F)c2)S1 | N |
| C[N+]1(C)[C@@H]2CC(OC(=O)C(O)(c3cccs3)c3cccs3)C[C@H]1[C@@H]1O[C@@H]12 (stereo not given in full) | N |
| CCN(CC)CCOC(=O)C1(c2ccc([N+](=O)[O-])cc2)CCCC1 | N |
| COc1ccc2nc3n[nH]c(C)c3c(NCCOCCO)c2c1 | N |
| Nc1ccc2ncnc(NCCc3ccc(Oc4ccccc4)cc3)c2c1 | Y |
| Nc1ccc(-c2cccc3c(=O)cc(N4CCOCC4)oc23)cc1 | N |
